target: HCV RNA-dependent RNA polymerase NS5B (Δ21) (Hepatitis C virus genotype 1b, UniProt P26663)
Sequence (P26663 2420-2989, stated change not applied): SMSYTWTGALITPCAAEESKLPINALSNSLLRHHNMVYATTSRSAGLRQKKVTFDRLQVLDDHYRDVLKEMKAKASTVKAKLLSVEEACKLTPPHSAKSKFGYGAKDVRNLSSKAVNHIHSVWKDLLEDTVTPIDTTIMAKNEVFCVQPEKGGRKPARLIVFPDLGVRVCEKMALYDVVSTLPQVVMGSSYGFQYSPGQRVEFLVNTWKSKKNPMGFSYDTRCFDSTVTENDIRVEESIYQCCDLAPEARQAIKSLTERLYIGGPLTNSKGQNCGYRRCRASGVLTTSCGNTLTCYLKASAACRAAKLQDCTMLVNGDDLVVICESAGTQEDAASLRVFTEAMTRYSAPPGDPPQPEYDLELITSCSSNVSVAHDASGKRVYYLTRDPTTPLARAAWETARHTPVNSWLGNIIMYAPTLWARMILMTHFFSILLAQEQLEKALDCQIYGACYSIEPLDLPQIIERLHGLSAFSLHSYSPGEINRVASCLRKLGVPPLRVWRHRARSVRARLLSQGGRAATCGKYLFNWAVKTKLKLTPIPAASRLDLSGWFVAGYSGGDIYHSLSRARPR
pIC50: −log10 of the molar value.
MEASURE_NAME: pIC50

>  <COMPOUND>
Nc1nc2ccc(CNC(=O)Cn3nc(C(=O)O)cc3OCc3ccccc3-c3ccc(C(F)(F)F)cc3)cc2s1 [Compound 62]

>  <MEASURE_NAME>
pIC50

>  <QUALIFIER_SYMBOL>
<

>  <READOUT_VALUE>
4.90

$$$$
>  <COMPOUND>
O=C(Cn1nc(C(=O)O)cc1OCc1ccccc1C(F)(F)F)N[C@H]1CCCC[C@@H]1OCc1ccccc1 [Compound 20]

>  <MEASURE_NAME>
pIC50

>  <QUALIFIER_SYMBOL>
=

>  <READOUT_VALUE>
5.54

$$$$
>  <COMPOUND>
O=C(Cn1nc(C(=O)O)cc1OCc1ccccc1-c1ccccc1)N[C@H]1CCCC[C@@H]1OCc1ccccc1 [Compound 3]

>  <MEASURE_NAME>
pIC50

>  <QUALIFIER_SYMBOL>
=

>  <READOUT_VALUE>
6.00

$$$$
>  <COMPOUND>
O=C(Cn1nc(C(=O)O)cc1OCc1cc(F)ccc1C(F)(F)F)N[C@H]1CCCC[C@@H]1OCc1ccccc1 [Compound 40]

>  <MEASURE_NAME>
pIC50

>  <QUALIFIER_SYMBOL>
=

>  <READOUT_VALUE>
5.51

$$$$
>  <COMPOUND>
O=C(Cn1nc(C(=O)O)cc1OCc1cccc(C(F)(F)F)c1F)N[C@H]1CCCC[C@@H]1OCc1ccccc1 [Compound 30]

>  <MEASURE_NAME>
pIC50

>  <QUALIFIER_SYMBOL>
=

>  <READOUT_VALUE>
5.70

$$$$
>  <COMPOUND>
O=C(Cn1nc(C(=O)O)cc1OCc1ccccc1F)N[C@H]1CCCC[C@@H]1OCc1ccccc1 [Compound 14]

>  <MEASURE_NAME>
pIC50

>  <QUALIFIER_SYMBOL>
<

>  <READOUT_VALUE>
4.90

$$$$
>  <COMPOUND>
Cc1ccc(COc2cc(C(=O)O)nn2CC(=O)N[C@H]2CCCC[C@@H]2OCc2ccccc2)cc1F [Compound 22]

>  <MEASURE_NAME>
pIC50

>  <QUALIFIER_SYMBOL>
=

>  <READOUT_VALUE>
5.52

$$$$
